# Recorded Conditions: in 2-butanone, 278.15 K
Measured Metric: solubility (mole fraction)

The compound listed as "CCOc1ccc(OCC)cc1" shows solubility (mole fraction) equal to 0.077

* * *

# Recorded Conditions: in 2-butanone, 313.15 K
Measured Metric: solubility (mole fraction)

The molecule listed as "CCOc1ccc(OCC)cc1" shows solubility (mole fraction) equal to 0.31

* * *

# Recorded Conditions: in 2-butanone, 308.15 K
Measured Metric: solubility (mole fraction)
Format: numeric value only, no unit, no commentary.

The compound listed as "CCOc1ccc(OCC)cc1" shows solubility (mole fraction) equal to 0.257

* * *

# Recorded Conditions: in ethanol, 278.15 K
Measured Metric: solubility (mole fraction)
Format: numeric value only, no unit, no commentary.

The compound listed as "CCOc1ccc(OCC)cc1" shows solubility (mole fraction) equal to 0.00307

* * *

# Recorded Conditions: in isobutyl acetate, 278.15 K
Measured Metric: solubility (mole fraction)
Format: numeric value only, no unit, no commentary.

The compound listed as "CCOc1ccc(OCC)cc1" shows solubility (mole fraction) equal to 0.0332

* * *

# Recorded Conditions: in ethyl lactate, 313.15 K
Measured Metric: solubility (mole fraction)
Format: numeric value only, no unit, no commentary.

The molecule listed as "CCOc1ccc(OCC)cc1" shows solubility (mole fraction) equal to 0.148

* * *

# Recorded Conditions: in ethyl lactate, 283.15 K
Measured Metric: solubility (mole fraction)

The compound listed as "CCOc1ccc(OCC)cc1" shows solubility (mole fraction) equal to 0.0305

* * *

# Recorded Conditions: in n-propyl acetate, 283.15 K
Measured Metric: solubility (mole fraction)
Format: numeric value only, no unit, no commentary.

The molecule listed as "CCOc1ccc(OCC)cc1" shows solubility (mole fraction) equal to 0.0753

* * *

# Recorded Conditions: in isobutyl acetate, 318.15 K
Measured Metric: solubility (mole fraction)
Format: numeric value only, no unit, no commentary.

The compound listed as "CCOc1ccc(OCC)cc1" shows solubility (mole fraction) equal to 0.281

* * *

# Recorded Conditions: in n-butyl acetate, 278.15 K
Measured Metric: solubility (mole fraction)
Format: numeric value only, no unit, no commentary.

The compound listed as "CCOc1ccc(OCC)cc1" shows solubility (mole fraction) equal to 0.0821

* * *

# Recorded Conditions: in acetone, 298.15 K
Measured Metric: solubility (mole fraction)
Format: numeric value only, no unit, no commentary.

The compound listed as "CCOc1ccc(OCC)cc1" shows solubility (mole fraction) equal to 0.12

* * *

# Recorded Conditions: in acetone, 303.15 K
Measured Metric: solubility (mole fraction)
Format: numeric value only, no unit, no commentary.

The compound listed as "CCOc1ccc(OCC)cc1" shows solubility (mole fraction) equal to 0.158

* * *

# Recorded Conditions: in n-propyl acetate, 293.15 K
Measured Metric: solubility (mole fraction)
Format: numeric value only, no unit, no commentary.

The compound listed as "CCOc1ccc(OCC)cc1" shows solubility (mole fraction) equal to 0.133

* * *

# Recorded Conditions: in dimethyl carbonate, 313.15 K
Measured Metric: solubility (mole fraction)
Format: numeric value only, no unit, no commentary.

The molecule listed as "CCOc1ccc(OCC)cc1" shows solubility (mole fraction) equal to 0.25

* * *

# Recorded Conditions: in dimethyl carbonate, 318.15 K
Measured Metric: solubility (mole fraction)
Format: numeric value only, no unit, no commentary.

The compound listed as "CCOc1ccc(OCC)cc1" shows solubility (mole fraction) equal to 0.342

* * *

# Recorded Conditions: in n-propyl acetate, 298.15 K
Measured Metric: solubility (mole fraction)
Format: numeric value only, no unit, no commentary.

The compound listed as "CCOc1ccc(OCC)cc1" shows solubility (mole fraction) equal to 0.165

* * *

# Recorded Conditions: in dimethyl carbonate, 293.15 K
Measured Metric: solubility (mole fraction)

The compound listed as "CCOc1ccc(OCC)cc1" shows solubility (mole fraction) equal to 0.072

* * *

# Recorded Conditions: in isobutyl acetate, 293.15 K
Measured Metric: solubility (mole fraction)
Format: numeric value only, no unit, no commentary.

The compound listed as "CCOc1ccc(OCC)cc1" shows solubility (mole fraction) equal to 0.0872

* * *

# Recorded Conditions: in acetonitrile, 298.15 K
Measured Metric: solubility (mole fraction)
Format: numeric value only, no unit, no commentary.

The molecule listed as "CCOc1ccc(OCC)cc1" shows solubility (mole fraction) equal to 0.0672

* * *

# Recorded Conditions: in acetone, 278.15 K
Measured Metric: solubility (mole fraction)
Format: numeric value only, no unit, no commentary.

The compound listed as "CCOc1ccc(OCC)cc1" shows solubility (mole fraction) equal to 0.0531

* * *

# Recorded Conditions: in acetonitrile, 303.15 K
Measured Metric: solubility (mole fraction)

The compound listed as "CCOc1ccc(OCC)cc1" shows solubility (mole fraction) equal to 0.102

* * *

# Recorded Conditions: in ethyl lactate, 293.15 K
Measured Metric: solubility (mole fraction)
Format: numeric value only, no unit, no commentary.

The molecule listed as "CCOc1ccc(OCC)cc1" shows solubility (mole fraction) equal to 0.0578

* * *

# Recorded Conditions: in ethyl acetate, 308.15 K
Measured Metric: solubility (mole fraction)
Format: numeric value only, no unit, no commentary.

The molecule listed as "CCOc1ccc(OCC)cc1" shows solubility (mole fraction) equal to 0.264

* * *

# Recorded Conditions: in methanol, 298.15 K
Measured Metric: solubility (mole fraction)

The molecule listed as "CCOc1ccc(OCC)cc1" shows solubility (mole fraction) equal to 0.00924

* * *

# Recorded Conditions: in methyl acetate, 283.15 K
Measured Metric: solubility (mole fraction)
Format: numeric value only, no unit, no commentary.

The compound listed as "CCOc1ccc(OCC)cc1" shows solubility (mole fraction) equal to 0.0685

* * *

# Recorded Conditions: in acetone, 288.15 K
Measured Metric: solubility (mole fraction)
Format: numeric value only, no unit, no commentary.

The molecule listed as "CCOc1ccc(OCC)cc1" shows solubility (mole fraction) equal to 0.0839

* * *

# Recorded Conditions: in methyl acetate, 308.15 K
Measured Metric: solubility (mole fraction)
Format: numeric value only, no unit, no commentary.

The compound listed as "CCOc1ccc(OCC)cc1" shows solubility (mole fraction) equal to 0.24

* * *

# Recorded Conditions: in acetone, 293.15 K
Measured Metric: solubility (mole fraction)

The molecule listed as "CCOc1ccc(OCC)cc1" shows solubility (mole fraction) equal to 0.0969

* * *

# Recorded Conditions: in isobutyl acetate, 283.15 K
Measured Metric: solubility (mole fraction)
Format: numeric value only, no unit, no commentary.

The compound listed as "CCOc1ccc(OCC)cc1" shows solubility (mole fraction) equal to 0.045

* * *

# Recorded Conditions: in dimethyl carbonate, 278.15 K
Measured Metric: solubility (mole fraction)
Format: numeric value only, no unit, no commentary.

The molecule listed as "CCOc1ccc(OCC)cc1" shows solubility (mole fraction) equal to 0.0243

* * *

# Recorded Conditions: in ethyl acetate, 283.15 K
Measured Metric: solubility (mole fraction)

The compound listed as "CCOc1ccc(OCC)cc1" shows solubility (mole fraction) equal to 0.0933

* * *

# Recorded Conditions: in acetone, 313.15 K
Measured Metric: solubility (mole fraction)
Format: numeric value only, no unit, no commentary.

The compound listed as "CCOc1ccc(OCC)cc1" shows solubility (mole fraction) equal to 0.263

* * *

# Recorded Conditions: in n-propyl acetate, 303.15 K
Measured Metric: solubility (mole fraction)
Format: numeric value only, no unit, no commentary.

The molecule listed as "CCOc1ccc(OCC)cc1" shows solubility (mole fraction) equal to 0.202

* * *

# Recorded Conditions: in n-butyl acetate, 308.15 K
Measured Metric: solubility (mole fraction)

The compound listed as "CCOc1ccc(OCC)cc1" shows solubility (mole fraction) equal to 0.293

* * *

# Recorded Conditions: in n-butyl acetate, 293.15 K
Measured Metric: solubility (mole fraction)
Format: numeric value only, no unit, no commentary.

The compound listed as "CCOc1ccc(OCC)cc1" shows solubility (mole fraction) equal to 0.172

* * *

# Recorded Conditions: in dimethyl carbonate, 283.15 K
Measured Metric: solubility (mole fraction)
Format: numeric value only, no unit, no commentary.

The compound listed as "CCOc1ccc(OCC)cc1" shows solubility (mole fraction) equal to 0.0339

* * *

# Recorded Conditions: in acetonitrile, 293.15 K
Measured Metric: solubility (mole fraction)
Format: numeric value only, no unit, no commentary.

The molecule listed as "CCOc1ccc(OCC)cc1" shows solubility (mole fraction) equal to 0.0498

* * *

# Recorded Conditions: in ethyl lactate, 288.15 K
Measured Metric: solubility (mole fraction)
Format: numeric value only, no unit, no commentary.

The molecule listed as "CCOc1ccc(OCC)cc1" shows solubility (mole fraction) equal to 0.0458

* * *

# Recorded Conditions: in n-butyl acetate, 318.15 K
Measured Metric: solubility (mole fraction)
Format: numeric value only, no unit, no commentary.

The compound listed as "CCOc1ccc(OCC)cc1" shows solubility (mole fraction) equal to 0.432
